target: MAPK14 (UniProt Q16539)
Sequence (Q16539 whole entry, looked up): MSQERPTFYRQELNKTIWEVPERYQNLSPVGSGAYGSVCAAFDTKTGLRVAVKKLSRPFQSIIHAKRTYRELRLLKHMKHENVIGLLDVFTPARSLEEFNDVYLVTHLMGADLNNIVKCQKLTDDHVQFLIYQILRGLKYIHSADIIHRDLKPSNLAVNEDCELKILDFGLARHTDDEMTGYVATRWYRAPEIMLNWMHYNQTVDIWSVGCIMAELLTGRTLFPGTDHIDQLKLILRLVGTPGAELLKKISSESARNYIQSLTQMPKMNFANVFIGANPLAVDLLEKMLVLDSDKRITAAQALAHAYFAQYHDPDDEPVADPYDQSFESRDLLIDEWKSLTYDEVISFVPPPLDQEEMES
readout-name: IC50 (µM)
Value expressed in µM; do not type the unit.

Exercise: # get_value(readout='IC50', item= `CCc1cnn(-c2cccc(F)c2)c1-c1ccncc1` )
Solution: 16.5

---

target: MAPK14 (human)
assay-protocol: Inhibition of TNF Production (PBMC)
Param label: returns Condition met when IC50 < 2000 nM, returns Condition not met otherwise, including exact equality.

Please review the entries below; each comes with its answer.
{"columns": ["compound-structure", "assigned-category"],
 "data": [
  ["Cc1ccc(-n2nc(C)cc2-c2ccnc(N(C)C)c2)cc1", "Condition not met"],
  ["Cc1cnn(-c2ccc(F)cc2)c1-c1ccncc1", "Condition met"],
  ["Cc1cccc(-n2nc(C)cc2-c2ccnc(NCCO)c2)c1", "Condition met"],
  ["CCNc1cc(-c2cc(C)nn2-c2ccc(C)cc2)ccn1", "Condition met"],
  ["Cc1cnn(Cc2ccccc2)c1-c1ccncc1", "Condition not met"],
  ["CCNc1cc(-c2ccncc2)n(-c2ccc(F)cc2)n1", "Condition not met"],
  ["Cc1cccc(-n2nc(C)cc2-c2ccnc(NCCc3ccccc3)c2)c1", "Condition met"],
  ["CCCc1cnn(-c2cccc(F)c2)c1-c1ccncc1", "Condition met"],
  ["Cc1ccc(-n2nc(C)cc2-c2ccnc(NCc3ccccc3)c2)cc1", "Condition met"],
  ["O=C(c1cnn(-c2ccc(F)cc2)c1-c1ccncc1)N1CCNCC1", "Condition not met"]
]}

Now look at this one.
Exercise: State whether 2000 nM exceeds IC50 recorded for `CCc1cnn(-c2cccc(F)c2)c1-c1ccncc1` .
Solution: Condition met

---

target: MAPK14 (human)
assay-protocol: Inhibition of TNF Production (U937 Cells)
IC50 under 1 µM gets Fulfilled, anything at or over 1 µM gets Not fulfilled.

Exercise: Lab note: IC50 threshold 1 µM. Does this compound come in strictly under it? `Cc1cccc(-n2nc(C)cc2-c2cc[nH]c(=O)c2)c1`
Solution: Not fulfilled

Exercise: IC50 under 1 µM? Item: `COc1cc(-c2cc(C)nn2-c2cccc(C)c2)ccn1`
Solution: Not fulfilled

Exercise: Please determine if `Cc1cc(-c2ccnc(NCc3ccccc3)c2)n(-c2ccc(Cl)cc2)n1` is below 1 µM in terms of IC50.
Solution: Fulfilled

Exercise: hey, is IC50 for `O=C(O)c1cnn(-c2ccc(F)cc2)c1-c1ccncc1` lower than 1 µM or not?
Solution: Not fulfilled

Exercise: Please determine if `NC(=O)c1cnn(-c2ccc(F)cc2)c1-c1ccncc1` is below 1 µM in terms of IC50.
Solution: Not fulfilled

Exercise: Strictly below 1 µM: is that where IC50 of `CNc1cc(-c2cc(C)nn2-c2ccc(C)cc2)ccn1` sits?
Solution: Not fulfilled

Exercise: Determine if `CCNc1cc(-c2ccncc2)n(-c2ccc(F)cc2)n1` shows IC50 strictly lower than 1 µM.
Solution: Not fulfilled

Exercise: Threshold test, IC50 < 1 µM: `COC(=O)c1cnn(-c2ccc(F)cc2)c1-c1ccncc1`
Solution: Not fulfilled

Exercise: Report whether reported IC50 is lower than 1 µM (strictly) for `Cc1cccc(-n2nc(C)cc2-c2ccnc(NCCO)c2)c1`
Solution: Fulfilled

---

target: UniProtKB Q16539
assay-protocol: Inhibition of TNF Production (PBMC)
Listing of entries alongside the reported pIC50.
Reminder that pIC50 is minus the log10 of a molar concentration.

Below, 6 molecules whose answers are already recorded.
{"columns": ["compound-structure", "pIC50"],
 "data": [
  ["Cc1cccc(-n2nc(C)cc2-c2ccnc(N(C)C)c2)c1", 5.47],
  ["Cc1ccc(-n2nc(C)cc2-c2ccnc(NCc3cccnc3)c2)cc1", 5.82],
  ["Fc1ccc(-n2nccc2-c2ccnc(NCCc3ccccc3)c2)cc1", 5.00],
  ["Cc1cccc(-n2nc(C)cc2-c2ccnc(C(N)=O)c2)c1", 5.30],
  ["Cc1ccc(-n2nc(C)cc2-c2ccnc(NCCO)c2)cc1", 6.70],
  ["Fc1ccc(-n2nccc2-c2ccnc(NCc3ccccc3)c2)cc1", 5.89]
]}

Exercise: Requested field: pIC50. Item: `COc1cc(-c2cc(C)nn2-c2cccc(C)c2)ccn1`
Solution: 5.72

Exercise: I have this molecule here, `Cc1cccc(-n2nc(C)cc2-c2ccnc(N(C)CCc3ccccc3)c2)c1` , and I need its recorded pIC50.
Solution: 6.10
